Sourced from ChEMBL document CHEMBL1772949

# study-system: UniProtKB P10826
# Sequence (whole entry): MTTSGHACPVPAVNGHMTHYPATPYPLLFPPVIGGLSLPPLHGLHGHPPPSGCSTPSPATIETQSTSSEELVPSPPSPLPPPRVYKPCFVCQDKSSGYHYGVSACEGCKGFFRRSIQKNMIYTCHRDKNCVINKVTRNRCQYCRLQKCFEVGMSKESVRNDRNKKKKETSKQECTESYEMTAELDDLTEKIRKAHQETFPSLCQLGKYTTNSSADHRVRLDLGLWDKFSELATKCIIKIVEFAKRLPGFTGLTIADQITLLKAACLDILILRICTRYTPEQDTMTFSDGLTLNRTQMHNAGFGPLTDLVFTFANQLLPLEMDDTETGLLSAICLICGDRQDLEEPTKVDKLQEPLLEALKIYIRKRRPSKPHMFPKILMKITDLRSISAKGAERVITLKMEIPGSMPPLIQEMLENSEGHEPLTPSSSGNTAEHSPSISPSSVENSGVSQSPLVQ
# procedure-details: Agonist activity at human RARbeta expressed in human MG63 cells co-transfected with RARE3-SV40-Luc assessed as transcriptional efficacy at 10^-6 M after 2 days by luciferase reporter gene assay realtive to 9-cis-retinoic acid
# Assay type: functional, cell-based
# conditions-used: MG-63
parameter: Ratio

Summary for this molecule, CC(=C/C=C/C(C)=C/C(=O)O)/C=C/C1=CC[C@H]2C[C@@H]1C2(C)C : Ratio is 1.92

Summary for this molecule, C=C(C)[C@H]1CC[C@H](C)C=C1/C=C/C(C)=C\C=C\C(C)=C\C(=O)O : Ratio is 1.33

Summary for this molecule, CC(=C/C=C/C(C)=C/C(=O)O)/C=C/C1=C[C@H]2C[C@@H]([C@@H]1C)C2(C)C : Ratio is 1.48

Summary for this molecule, CC(=C/C=C/C(C)=C/C(=O)O)/C=C/C1=C[C@]2(C(C)C)C[C@@H]2[C@H]1C : Ratio is 1.03

Summary for this molecule, CC(=C/C=C/C(C)=C/C(=O)O)/C=C/C1=C[C@@H]2C[C@H]([C@H]1C)C2(C)C : Ratio is 0.89

Summary for this molecule, C/C(=C/C=C/C(C)=C/C(=O)O)C1=C[C@H](C)CC[C@H]1C(C)C : Ratio is 0.14

Summary for this molecule, C=C(C)[C@@H]1CCC2=CC(\C(C)=C/C=C/C(C)=C/C(=O)O)=CC[C@]2(C)[C@H]1C : Ratio is 0.1
